Measured melting point by item
MEASURE NAME: melting point

{"COMPOUND": "CCn1c(C(O)(c2ccccc2)c2ccccc2)nc(-c2ccncc2)c1-c1ccc(Cl)cc1", "MEASURE NAME": "melting point", "MEASUREMENT": "222 to 223 °C"}
{"COMPOUND": "CCCCc1nc([N+](=O)[O-])c(CSc2ccccc2C(=O)O)n1Cc1ccc(C(=O)O)cc1", "MEASURE NAME": "melting point", "MEASUREMENT": "246 to 247 °C"}
{"COMPOUND": "CC(=NO)c1ccc(Cl)c(S(N)(=O)=O)c1", "MEASURE NAME": "melting point", "MEASUREMENT": "157 to 158 °C"}
{"COMPOUND": "CN(Cc1ccco1)Cn1cc(C#N)c(-c2cccc(Cl)c2Cl)c1", "MEASURE NAME": "melting point", "MEASUREMENT": "79 to 80 °C"}
{"COMPOUND": "CC(C)CNC(=O)NCCCl", "MEASURE NAME": "melting point", "MEASUREMENT": "79.5 °C"}
{"COMPOUND": "COCc1c2c(n(Cc3ccccc3)c1-c1ccccc1)C(C)CN(Cc1ccccc1)C2 (centres undefined)", "MEASURE NAME": "melting point", "MEASUREMENT": "140 to 141 °C"}
{"COMPOUND": "COc1ccc(C)cc1NC(=O)Nc1ccc2c(c1)CCN(C(=O)Nc1ccc(OCCO)cc1Cl)C2", "MEASURE NAME": "melting point", "MEASUREMENT": "110 to 113 °C"}
{"COMPOUND": "Cn1cc(C2=C(c3cn(C)c4cc(CC#N)ccc34)C(=O)NC2=O)c2ccccc21", "MEASURE NAME": "melting point", "MEASUREMENT": "225 to 226 °C"}
{"COMPOUND": "CCOC(=O)C[C@@H]1C(=O)N(S(=O)(=O)c2ccc(OC)cc2)C=C[C@@H]1c1ccccc1", "MEASURE NAME": "melting point", "MEASUREMENT": "111 to 113 °C"}

----------
Documented melting point across a set of compounds
MEASURE NAME: melting point

{"COMPOUND": "COc1cccc(NC(=O)N2CCc3cc(S(=O)(=O)N4CCN(c5cccc(Cl)c5)CC4)ccc32)c1", "MEASUREMENT": "199 to 200 °C"}
{"COMPOUND": "CC(C)(N)c1ccc(-c2nc(Nc3ccc(-n4ccnn4)cc3)ncc2C#N)cc1", "MEASUREMENT": "139 to 140 °C"}
{"COMPOUND": "Nc1snc2nc(-c3ccccc3)sc12", "MEASUREMENT": "176 to 179 °C"}
{"COMPOUND": "CN(C)Cc1cccc(OCCCNc2nc(-c3ccccc3)n[nH]2)c1", "MEASUREMENT": "126 to 128 °C"}
{"COMPOUND": "N#CCCc1oc(/C=C/c2ccccc2)nc1-c1ccccc1", "MEASUREMENT": "117 to 118 °C"}
{"COMPOUND": "CCOC(=O)Cc1c(C)n(Cc2ccccc2)c2ccc(-c3ccccc3)cc12", "MEASUREMENT": "116 to 119 °C"}
{"COMPOUND": "COC(=O)CC=C1CCC2C3CCC4=CC(=O)CCC4(C)C3CCC12C (centres undefined)", "MEASUREMENT": "149 to 151 °C"}
{"COMPOUND": "CCCN1CC(c2ccc(F)cc2)=C(c2ccc(S(C)(=O)=O)cc2)C1=O", "MEASUREMENT": "150 to 152 °C"}
{"COMPOUND": "COc1cc(C(=O)NC2CCN(CC(F)(F)F)CC2)ccc1Nc1ncc2c(n1)N(C1CCCCC1)CC(F)(F)C(=O)N2C", "MEASUREMENT": "213 to 215 °C"}
{"COMPOUND": "COC(=O)c1cc(C(=O)OC)c(Br)cn1", "MEASUREMENT": "102 to 104 °C"}
{"COMPOUND": "COc1ccccc1Oc1c(NS(=O)(=O)c2c(C)noc2C)nc(-c2ncccn2)nc1OCCOC(=O)Nc1ccccn1", "MEASUREMENT": "217 to 218 °C"}
{"COMPOUND": "O=C(c1cccc(Cl)c1)N1CCc2cc(S(=O)(=O)N3CCN(c4cccc(Cl)c4)CC3)ccc21", "MEASUREMENT": "221 to 222 °C"}
{"COMPOUND": "C#CCNc1ccc([N+](=O)[O-])cc1", "MEASUREMENT": "150 to 153 °C"}
{"COMPOUND": "C/C(=C\\Cn1oc(=O)[nH]c1=O)c1ccc2oc(Cc3nc(-c4ccccc4)oc3C)cc2c1", "MEASUREMENT": "81 to 83 °C"}
{"COMPOUND": "CCCCCCCC1(CCCCCCC)c2ccccc2-c2ccc(Br)cc21", "MEASUREMENT": "32 °C"}
{"COMPOUND": "O=c1[nH]c(=O)n([C@H]2CO[C@H](CO)O2)cc1/C=C/Cl", "MEASUREMENT": "101 to 102 °C"}
{"COMPOUND": "Cc1cc(C)cc(Oc2c(C(C)C)c(=O)[nH]c(=O)n2CCC2C=CCC2)c1 (centres undefined)", "MEASUREMENT": "148 to 149 °C"}
{"COMPOUND": "Cc1ccc2nc(N3CC[C@H](NCCO)C3)ccc2c1NC(=O)CC1CCCCC1", "MEASUREMENT": "204 to 207 °C"}
{"COMPOUND": "CC1(C)OC(c2ccc(S(C)(=O)=O)c(Cl)c2)=C(c2ccccc2)C1=O", "MEASUREMENT": "174 to 175 °C"}
